Where a name gives a salt, the structure may show the parent alone.
Quick list: melting point per entry.

Molecule: COc1ccc2cc([C@H]3CCN(C[C@H](O)COc4cccc5occc45)[C@@H](C)C3)sc2c1.O=C(O)C(=O)O [Example 3]
melting point: 97 to 102 °C

Molecule: Cc1cc2c(OC[C@@H](O)CN3CC[C@H](c4cc5cc(Cl)ccc5s4)C[C@H]3C)cccc2o1 (as salt: salt) [Example 33]
melting point: 81.4 °C (dec.)

Molecule: COc1cccc2sc([C@@H]3CCN(C[C@H](O)COc4cccc5oc(C)cc45)[C@@H](C)C3)cc12 (as salt: oxalate) [Example 28]
melting point: 99.2 to 103 °C

Molecule: COc1cccc2sc([C@@H]3CCN(C[C@H](O)COc4cccc5c4OC(C)(C)C5)[C@H](C)C3)cc12.O=C(O)C(=O)O [Example 7]
melting point: 88 to 93 °C

Molecule: COc1cccc2sc([C@@H]3CCN(C[C@H](O)COc4cccc5c4OC(C)(C)C5)[C@@H](C)C3)cc12.O=C(O)C(=O)O [Example 9]
melting point: 83 to 86 °C

Next, consider the following molecule.
Lookup: Please give the measured melting point for this molecule: COc1cccc2sc(C3CCN(C[C@H](O)COc4cccc5oc(C)cc45)C(C)(C)C3)cc12 (single isomer, unassigned; isomer 1) (as salt: hydrochloride) [Example 34]
Found: 101.1 °C (dec.)

====

Counter-ions that a name gives are not always drawn.
Quick list: melting point per entry.

Example results:
Compound: COc1cccc2sc(C3CCN(C[C@H](O)COc4cccc5c4OC(C)(C)C5)[C@@H](C)C3)cc12.O=C(O)C(=O)O (stereo in doubt)
melting point: 145 to 148 °C
//
Compound: COc1cccc2sc([C@H]3CCN(C[C@H](O)COc4cccc5oc(C)cc45)[C@@H](C)C3)cc12 (as salt: oxalate)
melting point: 98 °C (dec.)
//
Compound: COc1cccc2sc([C@@H]3CCN(C[C@H](O)COc4cccc5oc(C)cc45)[C@H](C)C3)cc12 (as salt: oxalate)
melting point: 101.2 to 109.5 °C

Lookup: Please give the measured melting point for this compound: COc1cccc2sc([C@H]3CCN(C[C@H](O)COc4cccc5c4OC(C)(C)C5)[C@H](C)C3)cc12.O=C(O)C(=O)O
Found: 93 to 96 °C

Lookup: Please give the measured melting point for this compound: Cc1cc2c(OC[C@@H](O)CN3CC[C@H](c4cc5cc(Cl)ccc5s4)C[C@@H]3C)cccc2o1 (as salt: salt)
Found: 204.1 to 208.3 °C

Lookup: Please give the measured melting point for this compound: COc1cccc2sc(C3CCN(C[C@H](O)COc4cccc5oc(C)cc45)C(C)(C)C3)cc12 (single isomer, unassigned; isomer 2) (as salt: hydrochloride) [Example 35]
Found: 83.5 °C (dec.)

Lookup: Please give the measured melting point for this compound: COc1cccc2sc([C@H]3CCN(C[C@H](O)COc4cccc5oc(C)cc45)[C@H](C)C3)cc12 (as salt: oxalate)
Found: 92.5 °C (dec.)

Lookup: Please give the measured melting point for this compound: Cc1cc2c(OC[C@@H](O)CN3CC[C@@H](c4cc5cc(Cl)ccc5s4)C[C@@H]3C)cccc2o1 (as salt: salt)
Found: 78.5 °C (dec.)

====

Quick list: melting point per entry.
Structures can show the parent of a compound that is named as a salt.

Compound: COc1ccc2cc([C@@H]3CCN(C[C@H](O)COc4cccc5occc45)[C@H](C)C3)sc2c1.O=C(O)C(=O)O
melting point: 97 to 102 °C (dec.)
//
Compound: COc1ccc2cc([C@@H]3CCN(C[C@H](O)COc4cccc5occc45)[C@@H](C)C3)sc2c1.O=C(O)C(=O)O
melting point: 130 to 133 °C
//
Compound: O=C(O)C(=O)O.O[C@H](COc1cccc2occc12)CN1CCC(c2cc3ccc(F)cc3s2)CC1
melting point: 196 to 198 °C (dec.)

Next, consider the following compound.
Lookup: Please give the measured melting point for this compound: Cc1cc2c(OC[C@@H](O)CN3CC[C@@H](c4cc5cc(Cl)ccc5s4)C[C@H]3C)cccc2o1 (as salt: salt)
Found: 88.5 °C (dec.)
